Answer each item with its documented shrunken log2 fold change.
System: Escherichia coli TOP10;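 note: peptides expressed intracellularly from a pBAD plasmid library in pooled LB shake-flask culture, induced with 0.3% L-arabinose, DNA abundance read by NGS, three biological replicates, DESeq2 with apeglm shrinkage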
experimentalDetails: shrunken log2 fold change of peptide-encoding DNA abundance (4.5 h post-induction vs induction); higher = less antimicrobial activity (less host growth inhibition)
conditionLabel: time post-induction: 4.5 h; library: site-saturation at positions 5, 18, 19, 20
Answer using only a numeral; do not append any unit.

Challenge: State its shrunken log2 fold change on Escherichia coli TOP10: "RRIRDRPPRLPRPRPRPNANPRP"
Response given: 0.000903

Challenge: State its shrunken log2 fold change on Escherichia coli TOP10: "RRIRQRPPRLPRPRPRPILSPRP"
Response given: 0.0165

Challenge: State its shrunken log2 fold change on Escherichia coli TOP10: "RRIRSRPPRLPRPRPRPCPNPRP"
Response given: -0.209

Challenge: State its shrunken log2 fold change on Escherichia coli TOP10: "RRIRGRPPRLPRPRPRPHVFPRP"
Response given: 0.162

Challenge: State its shrunken log2 fold change on Escherichia coli TOP10: "RRIRERPPRLPRPRPRPVHNPRP"
Response given: -1.53

Challenge: State its shrunken log2 fold change on Escherichia coli TOP10: "RRIRCRPPRLPRPRPRPFFTPRP"
Response given: -0.0887

Challenge: State its shrunken log2 fold change on Escherichia coli TOP10: "RRIRVRPPRLPRPRPRPHWTPRP"
Response given: -0.045

Challenge: State its shrunken log2 fold change on Escherichia coli TOP10: "RRIRWRPPRLPRPRPRPQAVPRP"
Response given: 0.232

Challenge: State its shrunken log2 fold change on Escherichia coli TOP10: "RRIRKRPPRLPRPRPRPEMAPRP"
Response given: 1.73

Challenge: State its shrunken log2 fold change on Escherichia coli TOP10: "RRIRVRPPRLPRPRPRPTGAPRP"
Response given: 0.47

Challenge: State its shrunken log2 fold change on Escherichia coli TOP10: "RRIRIRPPRLPRPRPRPAHFPRP"
Response given: 0.0262

Challenge: State its shrunken log2 fold change on Escherichia coli TOP10: "RRIRKRPPRLPRPRPRPQTWPRP"
Response given: 0.134

Challenge: State its shrunken log2 fold change on Escherichia coli TOP10: "RRIRTRPPRLPRPRPRPFGVPRP"
Response given: 0.0203

Challenge: State its shrunken log2 fold change on Escherichia coli TOP10: "RRIRNRPPRLPRPRPRPIGTPRP"
Response given: 0.000741

Challenge: State its shrunken log2 fold change on Escherichia coli TOP10: "RRIRTRPPRLPRPRPRPHFEPRP"
Response given: -0.323

Challenge: State its shrunken log2 fold change on Escherichia coli TOP10: "RRIRGRPPRLPRPRPRPWPNPRP"
Response given: -0.0526

Challenge: State its shrunken log2 fold change on Escherichia coli TOP10: "RRIRYRPPRLPRPRPRPFMNPRP"
Response given: -0.0199

Challenge: State its shrunken log2 fold change on Escherichia coli TOP10: "RRIRDRPPRLPRPRPRPRVQPRP"
Response given: -0.183

Challenge: State its shrunken log2 fold change on Escherichia coli TOP10: "RRIRPRPPRLPRPRPRPKTRPRP"
Response given: 0.382

Challenge: State its shrunken log2 fold change on Escherichia coli TOP10: "RRIRGRPPRLPRPRPRPTETPRP"
Response given: 0.559

Challenge: State its shrunken log2 fold change on Escherichia coli TOP10: "RRIRLRPPRLPRPRPRPMCKPRP"
Response given: 0.0258

Challenge: State its shrunken log2 fold change on Escherichia coli TOP10: "RRIRKRPPRLPRPRPRPLQRPRP"
Response given: 0.331

Challenge: State its shrunken log2 fold change on Escherichia coli TOP10: "RRIRMRPPRLPRPRPRPETHPRP"
Response given: 2.51

Challenge: State its shrunken log2 fold change on Escherichia coli TOP10: "RRIRQRPPRLPRPRPRPIRMPRP"
Response given: -0.291

Challenge: State its shrunken log2 fold change on Escherichia coli TOP10: "RRIRSRPPRLPRPRPRPFIMPRP"
Response given: -1.09

Challenge: State its shrunken log2 fold change on Escherichia coli TOP10: "RRIRCRPPRLPRPRPRPCKAPRP"
Response given: -0.0437

Challenge: State its shrunken log2 fold change on Escherichia coli TOP10: "RRIRQRPPRLPRPRPRPMAWPRP"
Response given: -0.128

Challenge: State its shrunken log2 fold change on Escherichia coli TOP10: "RRIRCRPPRLPRPRPRPSIFPRP"
Response given: -0.575

Challenge: State its shrunken log2 fold change on Escherichia coli TOP10: "RRIRFRPPRLPRPRPRPHMAPRP"
Response given: -0.429

Challenge: State its shrunken log2 fold change on Escherichia coli TOP10: "RRIRKRPPRLPRPRPRPKSWPRP"
Response given: 0.308

Challenge: State its shrunken log2 fold change on Escherichia coli TOP10: "RRIRCRPPRLPRPRPRPKESPRP"
Response given: 0.0858

Challenge: State its shrunken log2 fold change on Escherichia coli TOP10: "RRIRTRPPRLPRPRPRPRQTPRP"
Response given: 0.0617

Challenge: State its shrunken log2 fold change on Escherichia coli TOP10: "RRIRKRPPRLPRPRPRPMETPRP"
Response given: -0.0146

Challenge: State its shrunken log2 fold change on Escherichia coli TOP10: "RRIRYRPPRLPRPRPRPQHPPRP"
Response given: -0.595

Challenge: State its shrunken log2 fold change on Escherichia coli TOP10: "RRIRTRPPRLPRPRPRPNMPPRP"
Response given: -0.0405

Challenge: State its shrunken log2 fold change on Escherichia coli TOP10: "RRIRNRPPRLPRPRPRPDRAPRP"
Response given: 0.171

Challenge: State its shrunken log2 fold change on Escherichia coli TOP10: "RRIRPRPPRLPRPRPRPQTTPRP"
Response given: -0.161

Challenge: State its shrunken log2 fold change on Escherichia coli TOP10: "RRIRTRPPRLPRPRPRPMQEPRP"
Response given: -0.0701

Challenge: State its shrunken log2 fold change on Escherichia coli TOP10: "RRIRRRPPRLPRPRPRPNFLPRP"
Response given: 0.0376

Challenge: State its shrunken log2 fold change on Escherichia coli TOP10: "RRIRARPPRLPRPRPRPAWVPRP"
Response given: 0.235

Challenge: State its shrunken log2 fold change on Escherichia coli TOP10: "RRIRHRPPRLPRPRPRPKQTPRP"
Response given: 0.179

Challenge: State its shrunken log2 fold change on Escherichia coli TOP10: "RRIRPRPPRLPRPRPRPIDRPRP"
Response given: -0.00145

Challenge: State its shrunken log2 fold change on Escherichia coli TOP10: "RRIRERPPRLPRPRPRPDSPPRP"
Response given: -0.184

Challenge: State its shrunken log2 fold change on Escherichia coli TOP10: "RRIRCRPPRLPRPRPRPHFGPRP"
Response given: -0.219

Challenge: State its shrunken log2 fold change on Escherichia coli TOP10: "RRIRPRPPRLPRPRPRPAPMPRP"
Response given: 0.284

Challenge: State its shrunken log2 fold change on Escherichia coli TOP10: "RRIRNRPPRLPRPRPRPLLSPRP"
Response given: 0.1

Challenge: State its shrunken log2 fold change on Escherichia coli TOP10: "RRIRARPPRLPRPRPRPMNIPRP"
Response given: -0.583

Challenge: State its shrunken log2 fold change on Escherichia coli TOP10: "RRIRQRPPRLPRPRPRPAHQPRP"
Response given: 0.0203

Challenge: State its shrunken log2 fold change on Escherichia coli TOP10: "RRIRMRPPRLPRPRPRPIATPRP"
Response given: -0.0165

Challenge: State its shrunken log2 fold change on Escherichia coli TOP10: "RRIRWRPPRLPRPRPRPKVAPRP"
Response given: 1.16

Challenge: State its shrunken log2 fold change on Escherichia coli TOP10: "RRIRARPPRLPRPRPRPGSNPRP"
Response given: 0.127

Challenge: State its shrunken log2 fold change on Escherichia coli TOP10: "RRIRQRPPRLPRPRPRPFSWPRP"
Response given: -0.0597

Challenge: State its shrunken log2 fold change on Escherichia coli TOP10: "RRIRERPPRLPRPRPRPQRSPRP"
Response given: -0.106

Challenge: State its shrunken log2 fold change on Escherichia coli TOP10: "RRIRIRPPRLPRPRPRPHEFPRP"
Response given: -0.241

Challenge: State its shrunken log2 fold change on Escherichia coli TOP10: "RRIRYRPPRLPRPRPRPHSLPRP"
Response given: -0.184

Challenge: State its shrunken log2 fold change on Escherichia coli TOP10: "RRIRFRPPRLPRPRPRPTEVPRP"
Response given: -0.0247

Challenge: State its shrunken log2 fold change on Escherichia coli TOP10: "RRIRARPPRLPRPRPRPSQKPRP"
Response given: 0.106

Challenge: State its shrunken log2 fold change on Escherichia coli TOP10: "RRIRHRPPRLPRPRPRPRNCPRP"
Response given: -0.112

Challenge: State its shrunken log2 fold change on Escherichia coli TOP10: "RRIRMRPPRLPRPRPRPTMEPRP"
Response given: 0.868

Challenge: State its shrunken log2 fold change on Escherichia coli TOP10: "RRIRYRPPRLPRPRPRPYFEPRP"
Response given: -0.58

Challenge: State its shrunken log2 fold change on Escherichia coli TOP10: "RRIRERPPRLPRPRPRPYPCPRP"
Response given: -0.00884

Challenge: State its shrunken log2 fold change on Escherichia coli TOP10: "RRIRMRPPRLPRPRPRPVETPRP"
Response given: -0.00114

Challenge: State its shrunken log2 fold change on Escherichia coli TOP10: "RRIRDRPPRLPRPRPRPRWSPRP"
Response given: 0.264
